Tested on: 786-0 renal
ASSAY_PROTOCOL: NCI tumour cell line growth inhibition, 48 h
Measured TGI by item

Take a look at these entries with their results.
[[record]]
compound = "O=C(CC(O)c1ccncc1)c1ccccc1 (stereo unspecified)"
target_or_system = "786-0 renal"
property = "TGI"
measured = "> 100 µM"

[[record]]
compound = "CS(=O)(=O)Nc1cccc(-c2ccc3c(NC(=O)C4CC4)n[nH]c3c2)c1"
target_or_system = "786-0 renal"
property = "TGI"
measured = "> 25 µM"

[[record]]
compound = "O=C1NC(N/N=C/c2ccccc2)=N/C1=C\\c1cccs1"
target_or_system = "786-0 renal"
property = "TGI"
measured = "44.6 µM"

[[record]]
compound = "O=C1CSC(=S)N1Cc1cccnc1"
target_or_system = "786-0 renal"
property = "TGI"
measured = "11.2 µM"

[[record]]
compound = "COc1cc2c(cc1OCCCCCn1c(-c3ccco3)nc3ccccc31)N=C[C@@H]1CCCN1C2=O"
target_or_system = "786-0 renal"
property = "TGI"
measured = "1.3 µM"


Attention now shifts to the item below.
// sample CNC(=O)c1n[nH]n(Cc2ccccc2)c1=S , its TGI was > 100 µM

====

Entries and their TGI
Test system: MOLT-4 leukemia
ASSAY_PROTOCOL: NCI tumour cell line growth inhibition, 48 h

[[record]]
compound = "CC(C)[Si](OCC1CC(C[C@H]2CC(C[C@H]3C[C@@H](CO[Si](C(C)C)(C(C)C)C(C)C)OC(C)(C)O3)OC(C)(C)O2)OC(C)(C)O1)(C(C)C)C(C)C (stereo not given in full)"
target_or_system = "MOLT-4 leukemia"
property = "TGI"
measured = "> 100 µM"


GET /value?item= COc1ccc(Cn2cc3c(c2-c2ccc(O)cc2)CCc2cnoc2-3)cc1 &field=TGI returns 27.4 µM

Consider CC(=O)Nc1ccc(S(=O)(=O)[N-]C2C(=O)c3ccccc3C(=O)C2[n+]2ccccc2)cc1 (stereo not given) . Its measured TGI is 47.2 µM

Lab note: CO/N=C(\COc1ccc2c(c1)oc(=O)c1cc(OC)ccc12)c1ccc(F)cc1 gave TGI of > 100 µM

====

Known GI50 of a selection of compounds
System: HOP-62 NSCLC
ASSAY_PROTOCOL: NCI tumour cell line growth inhibition, 48 h

Consider the reported GI50 for these compounds:
[[record]]
compound = "O=C1c2cccc3cccc(c23)C(=O)N1CCCCN1CCN(CCCCOc2ccc(-c3nc4ccc(N5CCOCC5)cc4[nH]3)cc2)CC1"
property = "GI50"
measured = "> 100 µM"

[[record]]
compound = "O=C1CSC(=S)N1Cc1cccnc1"
property = "GI50"
measured = "47 µM"

[[record]]
compound = "C=C(C)[C@@H]1CC[C@]2(C(=O)O)CC[C@]3(C)[C@H](CC[C@@H]4[C@@]5(C)C[C@@H](CC#Cc6ccc(Br)cc6)C(=O)C(C)(C)[C@@H]5CC[C@]43C)[C@@H]12"
property = "GI50"
measured = "12.4 µM"

[[record]]
compound = "O=c1oc2ccc(F)cc2c(=O)n1-c1ccc(Cl)cc1F"
property = "GI50"
measured = "1.57 µM"

[[record]]
compound = "COc1ccc2c(c1)C(=O)/C(=C/c1ccc([N+](=O)[O-])s1)O2"
property = "GI50"
measured = "1.07 µM"

[[record]]
compound = "COc1cc(C2CC(c3ccc(Nc4ccnc5cc(Cl)ccc45)cc3)=NN2C=O)cc(OC)c1OC (stereo not given)"
property = "GI50"
measured = "4.13 µM"

[[record]]
compound = "COc1cc(Nc2ncc3c(C)nc(-c4cccc(Oc5ccccc5)c4)n3n2)cc(OC)c1OC"
property = "GI50"
measured = "10.6 µM"

[[record]]
compound = "COc1cc(/C=C/C(=O)C(C(=O)/C=C/c2ccc(OC(=O)CCNc3nnc(C)s3)c(OC)c2)C(=O)CCNc2nnc(C)s2)ccc1OC(=O)CCNc1nnc(C)s1"
property = "GI50"
measured = "5.02 µM"


The recorded GI50 for entry Cn1ccnc1C(=O)/C=C/c1ccc(C(=O)Nc2ccccc2O)cc1 equals 4.6 µM

According to the records, this compound COc1ccc(Cn2cc3c(c2-c2ccc(O)cc2)CCc2cnoc2-3)cc1 displays GI50 of 0.49 µM
